This section lists pKi readings for Sodium-dependent dopamine transporter (Homo sapiens).
// pKi here means minus log10 of the molar concentration (mol/L)

Reference set, count: 6
# compound, pKi
measured = [
    ("COC(=O)[C@H](c1ccc(I)cc1)[C@H]1CCCCN1 (racemic)", 7.85),
    ("COC(=O)[C@H](c1cccc(I)c1)[C@H]1CCCCN1 (racemic)", 8.35),
    ("COC(=O)[C@H](c1cccc(I)c1)[C@H]1CCCCN1Cc1ccccc1N=[N+]=[N-] (racemic)", 5.95),
    ("COC(=O)[C@H](c1ccc(I)cc1)[C@H]1CCCCN1Cc1cccc(N=[N+]=[N-])c1 (racemic)", 5.56),
    ("COC(=O)[C@H](c1cccc(I)c1)[C@H]1CCCCN1Cc1ccc(N=[N+]=[N-])cc1 (racemic)", 6.18),
    ("COC(=O)[C@H](c1ccc(I)cc1)[C@H]1CCCCN1Cc1ccc(N=[N+]=[N-])cc1 (racemic)", 6.44),
]

Request body: readout pKi, system Sodium-dependent dopamine transporter (Homo sapiens), query COC(=O)[C@H](c1cccc(I)c1)[C@H]1CCCCN1Cc1cccc(N=[N+]=[N-])c1 (racemic) . Return the value. 5.69

Request body: readout pKi, system Sodium-dependent dopamine transporter (Homo sapiens), query COC(=O)[C@H](c1ccc(I)cc1)[C@H]1CCCCN1Cc1ccccc1N=[N+]=[N-] (racemic) . Return the value. 6.29

###

system: Sodium-dependent dopamine transporter (Homo sapiens, UniProt Q01959)
Sequence (Q01959 whole entry): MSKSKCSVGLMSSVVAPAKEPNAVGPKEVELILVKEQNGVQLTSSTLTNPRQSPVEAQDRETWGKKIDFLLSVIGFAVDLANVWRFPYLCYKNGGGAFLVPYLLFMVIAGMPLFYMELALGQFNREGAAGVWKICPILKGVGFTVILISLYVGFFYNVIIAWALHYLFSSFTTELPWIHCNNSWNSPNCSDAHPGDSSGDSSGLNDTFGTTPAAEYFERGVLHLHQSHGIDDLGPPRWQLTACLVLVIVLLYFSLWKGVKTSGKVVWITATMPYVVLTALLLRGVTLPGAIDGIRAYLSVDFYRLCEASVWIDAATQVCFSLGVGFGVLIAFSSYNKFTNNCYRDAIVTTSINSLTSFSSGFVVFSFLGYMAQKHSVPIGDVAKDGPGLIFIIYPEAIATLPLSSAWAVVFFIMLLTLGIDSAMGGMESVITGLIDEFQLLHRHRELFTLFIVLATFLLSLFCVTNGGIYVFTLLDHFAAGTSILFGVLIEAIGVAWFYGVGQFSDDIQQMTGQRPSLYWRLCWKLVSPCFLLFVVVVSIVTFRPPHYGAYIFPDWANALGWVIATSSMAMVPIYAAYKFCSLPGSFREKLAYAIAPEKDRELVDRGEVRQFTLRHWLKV
protocol: Inhibition of [3H]dopamine uptake at human DAT expressed in mouse N2A cells
Reported values of IC50 for individual entries
Lab book: enter the figure in nM, no units written.

# compound, measured quantity, units, experimental value
measured = [
    ("COC(=O)[C@H](c1cccc(I)c1)[C@H]1CCCCN1 (racemic)", "IC50", "nM", 14),
    ("COC(=O)[C@H](c1ccc(I)cc1)[C@H]1CCCCN1Cc1ccc(N=[N+]=[N-])cc1 (racemic)", "IC50", "nM", 2760),
    ("COC(=O)[C@H](c1cccc(I)c1)[C@H]1CCCCN1Cc1cccc(N=[N+]=[N-])c1 (racemic)", "IC50", "nM", 4630),
    ("COC(=O)[C@H](c1ccc(I)cc1)[C@H]1CCCCN1Cc1ccccc1N=[N+]=[N-] (racemic)", "IC50", "nM", 1230),
]

Would you kindly look at the next entry?
Sample COC(=O)[C@H](c1cccc(I)c1)[C@H]1CCCCN1Cc1ccc(N=[N+]=[N-])cc1 (racemic) — what was its IC50? 1830
